Data provenance is patent US20210380548A1.

target: MOZ-KAT6A (Homo sapiens, UniProt Q92794, A567V); construct: encoding amino acid residues 507 to 778 (Uniprot Q92794-1) of human KAT6A; made in house; host or cells: E. coli BL21 DE3; experiment: Acetyltransferase biochemical assay (AlphaScreen), KAT6A; details: Table 2 (MOZ-KAT6A); 10 μM Acetyl coenzyme A, histone H3.1, 5 nM enzyme
Sequence (Q92794 507-778 A567V limits assumed): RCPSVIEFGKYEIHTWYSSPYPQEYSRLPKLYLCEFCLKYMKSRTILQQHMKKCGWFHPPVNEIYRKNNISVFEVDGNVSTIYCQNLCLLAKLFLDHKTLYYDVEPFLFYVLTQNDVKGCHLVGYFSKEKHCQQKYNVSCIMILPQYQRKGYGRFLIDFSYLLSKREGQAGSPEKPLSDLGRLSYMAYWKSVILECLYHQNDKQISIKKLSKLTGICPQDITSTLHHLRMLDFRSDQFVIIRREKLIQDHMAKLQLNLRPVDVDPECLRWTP
property-name: IC50 (nM)

compound="O=C(NCC(c1ccccc1)c1ncco1)C1=Nc2ccncc2S(=O)(=O)N1 (stereo not shown)" meas_value=4000
compound="O=C(NCC(c1ccccc1)c1ncco1)C1=Nc2ccc(I)cc2S(=O)(=O)N1 (single isomer, unassigned) [Example 147]" meas_value=645

I = N#Cc1ccccc1CCNC(=O)C1=Nc2ccc(Br)cc2S(=O)(=O)N1
II = O=C(NCC(CO)c1ccccc1)C1=Nc2ccccc2S(=O)(=O)N1 (stereo not shown)
III = NC(=O)c1ccc2c(c1)S(=O)(=O)NC(C(=O)NCC(c1ccccc1)c1ncco1)=N2 (stereo not shown)
Ascending by IC50, please. Rank the items, then write their labels in that order. III, I, II
(III: 19.5 nM, I: 2610 nM, II: 38100 nM)

1 = O=C(NCC(c1ccccc1)c1ncco1)C1=Nc2ccc(-c3cnn(CCO)c3)cc2S(=O)(=O)N1 (stereo not shown)
2 = O=C(NCCc1cccnc1)C1=Nc2ccc(I)cc2S(=O)(=O)N1
Between 1 and 2 , whose measured IC50 reads higher? Give the label under which the chosen entry appears. 2

A = O=C(NCCc1ccccc1-c1ncco1)C1=Nc2ccc(I)cc2S(=O)(=O)N1
B = O=C(NCC(c1ccccc1)c1ncco1)C1=Nc2ccc(C(=O)O)cc2S(=O)(=O)N1 (stereo not shown)
C = O=C(NCCc1ccccc1OC(F)F)C1=Nc2ccc(Br)cc2S(=O)(=O)N1
D = CNC(=O)Cn1cc(-c2ccc3c(c2)S(=O)(=O)NC(C(=O)NCC(c2ccccc2)c2ncco2)=N3)cn1 (stereo not shown)
E = O=C(NCC(c1ccccc1)c1ncco1)C1=Nc2ncccc2S(=O)(=O)N1 (stereo not shown)
Ascending by IC50, please. Rank the items, then write their labels in that order. D, B, A, C, E

I = O=C(NCC(Oc1ccccc1)c1ccccc1)C1=Nc2ccccc2S(=O)(=O)N1 (stereo not shown)
II = O=C(NCC(c1ccccc1)n1cccc1)C1=Nc2ccccc2S(=O)(=O)N1 (stereo not shown)
Between I and II , whose measured IC50 reads higher? Give the label under which the chosen entry appears. I

====

molecular target: MOZ-KAT6A (Homo sapiens, UniProt Q92794, A567V); construct: encoding amino acid residues 507 to 778 (Uniprot Q92794-1) of human KAT6A; made in house; host or cells: E. coli BL21 DE3; assay: Revised Acetyltransferase Biochemical Assay, KAT6A; conditions: Table 8 (MOZ-KAT6A), 1 μM Acetyl coenzyme A
property-name: IC50 (nM)

Example results:
compound=O=C(NCC(c1ccccc1)c1ccccc1)C1=Nc2ccc(Br)cc2S(=O)(=O)N1 assayed_target="MOZ-KAT6A (Homo sapiens, UniProt Q92794, A567V)" meas_value=682
compound="Cc1ccc(C(CNC(=O)C2=Nc3ccc(Cl)cc3S(=O)(=O)N2)c2ncco2)cc1 (centres unmarked)" assayed_target="MOZ-KAT6A (Homo sapiens, UniProt Q92794, A567V)" meas_value=143
compound="O=C(NCC(c1ncco1)c1ccccc1OC(F)F)C1=Nc2ccc(I)cc2S(=O)(=O)N1 (centres unmarked)" assayed_target="MOZ-KAT6A (Homo sapiens, UniProt Q92794, A567V)" meas_value=5
compound=O=C(NCC1(c2ccccc2)CCCC1)C1=Nc2ccccc2S(=O)(=O)N1 assayed_target="MOZ-KAT6A (Homo sapiens, UniProt Q92794, A567V)" meas_value=970
compound=O=C(NCCc1ccccc1-c1n[nH]c(=O)o1)C1=Nc2ccc(I)cc2S(=O)(=O)N1 assayed_target="MOZ-KAT6A (Homo sapiens, UniProt Q92794, A567V)" meas_value=5
compound="O=C(NCC(c1ncco1)c1ccccc1I)C1=Nc2ccccc2S(=O)(=O)N1 (centres unmarked)" assayed_target="MOZ-KAT6A (Homo sapiens, UniProt Q92794, A567V)" meas_value=573

a = COc1ccccc1C(CNC(=O)C1=Nc2ccc(Cl)cc2S(=O)(=O)N1)c1ncco1 (centres unmarked)
b = O=C(NCC(c1ccccc1)c1nncs1)C1=Nc2ccc(I)cc2S(=O)(=O)N1 (centres unmarked)
c = CNC(=O)c1ccc2c(c1)S(=O)(=O)NC(C(=O)NCC(c1ccccc1)c1ncco1)=N2 (centres unmarked)
Please list these compounds in decreasing order of IC50. Rank the items, then write their labels in that order. c, a, b
(c: 30 nM, a: 21 nM, b: 8 nM)

P = O=C(NCC(c1ccccc1)c1ccccn1)C1=Nc2ccc(Br)cc2S(=O)(=O)N1 (centres unmarked)
Q = COc1ccccc1C(O)CNC(=O)C1=Nc2ccc(I)cc2S(=O)(=O)N1 (single isomer, unassigned)
R = O=C(NCC(c1ncco1)c1ccccc1-c1ccccc1)C1=Nc2ccccc2S(=O)(=O)N1 (centres unmarked)
Please list these compounds in decreasing order of IC50. Rank the items, then write their labels in that order. Q, R, P

I = O=C(NCC(c1cccc(O)c1)c1ncco1)C1=Nc2ccc(Br)cc2S(=O)(=O)N1 (centres unmarked)
II = O=C(NCC(CO)C1CCCCC1)C1=Nc2ccc(Cl)cc2S(=O)(=O)N1 (centres unmarked)
III = COCc1ccccc1C(CNC(=O)C1=Nc2ccccc2S(=O)(=O)N1)c1ncco1 (centres unmarked)
IV = O=C(NCC(c1ccc(F)cc1)c1ncco1)C1=Nc2ccc(Cl)cc2S(=O)(=O)N1 (centres unmarked)
Please list these compounds in decreasing order of IC50. Rank the items, then write their labels in that order. III, II, IV, I
